Just for reference, patent US9144238B2 is where these values come from.

conditions: pH 2.3

>  <compound>
C#CCOc1cccc(Cl)c1C1CC(c2csc(C3CCN(C(=O)Cn4nc(C(F)F)cc4C(F)F)CC3)n2)=NO1 (stereo not shown) [(I-6)]

>  <chromatographic logP>
3.51

$$$$
